Just for reference, ChEMBL document CHEMBL1140930 is where these values come from.

- test.protocol: Cell cycle arrest in human KB/HeLa cells assessed as G2/M phase accumulation at 316 nM after 24 hrs by FACS analysis
- Type: functional, cell-based
readout.label: Activity (%)
Quick reminder: number only, in %, skip the unit.

For orientation, consider the following solved cases.
COc1cc2c(c(OC)c1OC)-c1ccc(OC)c(=O)cc1[C@@H](NC(C)=O)CC2 [COLCHICINE] :: 94.5
COC(=O)Nc1nc2cc(C(=O)c3cccs3)ccc2[nH]1 [NOCODAZOLE] :: 93.2
CC[C@]1(O)C[C@H]2CN(CCc3c([nH]c4ccccc34)[C@@](C(=O)OC)(c3cc4c(cc3OC)N(C=O)[C@H]3[C@@](O)(C(=O)OC)[C@H](OC(C)=O)[C@]5(CC)C=CCN6CC[C@]43[C@@H]65)C2)C1 [VINCRISTINE] :: 5.9
CC(=O)O[C@H]1C(=O)[C@@]2(C)[C@H]([C@H](OC(=O)c3ccccc3)[C@]3(O)C[C@H](OC(=O)[C@H](O)[C@@H](NC(=O)c4ccccc4)c4ccccc4)C(C)=C1C3(C)C)[C@]1(OC(C)=O)CO[C@@H]1C[C@@H]2O [PACLITAXEL] :: 90.8

// next item, Activity requested
get_value(item= COc1ccc(C(=O)C=C2c3ccccc3C(=O)c3ccccc32)cc1 , readout=Activity) returns 92.8

###

- test.protocol: Cell cycle arrest in human KB/HeLa cells assessed as G1 phase accumulation at 31.6 nM after 24 hrs by FACS analysis
- Type: functional, cell-based
Give TRUE when the value for Activity is at least 60%. Give FALSE when it is less.

CC(=O)O[C@H]1C(=O)[C@@]2(C)[C@H]([C@H](OC(=O)c3ccccc3)[C@]3(O)C[C@H](OC(=O)[C@H](O)[C@@H](NC(=O)c4ccccc4)c4ccccc4)C(C)=C1C3(C)C)[C@]1(OC(C)=O)CO[C@@H]1C[C@@H]2O :: FALSE

Evaluate CC[C@]1(O)C[C@H]2CN(CCc3c([nH]c4ccccc34)[C@@](C(=O)OC)(c3cc4c(cc3OC)N(C=O)[C@H]3[C@@](O)(C(=O)OC)[C@H](OC(C)=O)[C@]5(CC)C=CCN6CC[C@]43[C@@H]65)C2)C1 : Activity at minimum 60%?
TRUE

Evaluate COc1cc2c(c(OC)c1OC)-c1ccc(OC)c(=O)cc1[C@@H](NC(C)=O)CC2 : Activity at minimum 60%?
FALSE

Evaluate COC(=O)Nc1nc2cc(C(=O)c3cccs3)ccc2[nH]1 : Activity at minimum 60%?
TRUE

Evaluate COc1ccc(C(=O)C=C2c3ccccc3C(=O)c3ccccc32)cc1 : Activity at minimum 60%?
FALSE

###

Entries and their Activity
- test.protocol: Cell cycle arrest in human KB/HeLa cells assessed as S phase accumulation at 10 nM after 24 hrs by FACS analysis
- Assay type: functional, cell-based
Quick reminder: number only, in %, skip the unit.

COc1cc2c(c(OC)c1OC)-c1ccc(OC)c(=O)cc1[C@@H](NC(C)=O)CC2 :: 35.7
COC(=O)Nc1nc2cc(C(=O)c3cccs3)ccc2[nH]1 :: 25.7
CC(=O)O[C@H]1C(=O)[C@@]2(C)[C@H]([C@H](OC(=O)c3ccccc3)[C@]3(O)C[C@H](OC(=O)[C@H](O)[C@@H](NC(=O)c4ccccc4)c4ccccc4)C(C)=C1C3(C)C)[C@]1(OC(C)=O)CO[C@@H]1C[C@@H]2O :: 26.6
COc1ccc(C(=O)C=C2c3ccccc3C(=O)c3ccccc32)cc1 :: 26

// next item, Activity requested
get_value(item= CC[C@]1(O)C[C@H]2CN(CCc3c([nH]c4ccccc34)[C@@](C(=O)OC)(c3cc4c(cc3OC)N(C=O)[C@H]3[C@@](O)(C(=O)OC)[C@H](OC(C)=O)[C@]5(CC)C=CCN6CC[C@]43[C@@H]65)C2)C1 , readout=Activity) returns 6.5
